The entries below come with measured PBM binding z-score values attached.
System: PPARg:RXRa (NR concentration 180 nM, RXRa partner concentration 90 nM)
Assay: PBM binding z-score (relative to random genomic background probes); higher = stronger binding; sequences stand for … in GC…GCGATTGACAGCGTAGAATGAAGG
measured_quantity: PBM binding z-score

sequence_data: CCTAGTTGGTCAACGTCACACACGCTATAGGTAC
endpoint_value: 1.25

sequence_data: GTTAGCAGGCCATTTGGGTCACTCAATGACGGGC
endpoint_value: 0.776

sequence_data: CAAACTAGGTGAAAGGTCAAAGTCGAGCCAACCA
endpoint_value: 14.1

sequence_data: ATATGTAGGTTCGCTGGGGTCATTCAGACTAGGC
endpoint_value: 2.95

sequence_data: ACTTGCAGGCCAAGTTTGGGTCACTCAAACAAAG
endpoint_value: 0.148

sequence_data: GCTAGCAGGCCATTTCGGTCACTCAATGACGGGC
endpoint_value: 0.224

sequence_data: TCTTGAAGATCAAAGGTTAAGAAAGCCGAAGCCT
endpoint_value: 4.39

sequence_data: GCTAGTTAGTCAGTAAAAGGTCACACACCGGTCG
endpoint_value: 3.96

sequence_data: TTACCAAGGTGAAAGGTCGTAGATGCACGCCTTG
endpoint_value: 8.66

sequence_data: CGTCCAAGGTCAAACGTCAGTGAAGAGATGACGG
endpoint_value: 5.95

sequence_data: AGTCAAAGTACATCTAGGTAACGTAAGATATGCT
endpoint_value: 1.35

sequence_data: CCTTACTGGTCACGAGGTTATAGCACGACGAGCG
endpoint_value: 1.77

sequence_data: TCAGATAGGTAAATGCTAGGTGAAAGTCCGATCT
endpoint_value: 0.231

sequence_data: AGATTGAGGTTATACGTAGATCAGGGAAGAAAGT
endpoint_value: 1.21

sequence_data: CAAACTAGGTCACGAAAGCTCAAAGTCGAATGAC
endpoint_value: 9.27

sequence_data: TTACCAAGGTGCGCTGAGGTCGTTGATCCAACTC
endpoint_value: -0.397

sequence_data: TGAATGAGGCTATAAGATCAGGGAACGTTGCAAA
endpoint_value: 0.387

sequence_data: CCTAGCAGGCCAATCTGGATCACTCAAGGCTTGA
endpoint_value: 0.141

sequence_data: CGTCCAAGGCCAAGGTCAGTGAAAGAGACTCGAA
endpoint_value: 0.804

sequence_data: CAAACTAGGTCTCGAAAGGTCAAAGTCGAATGAC
endpoint_value: 5.33

sequence_data: ACTAGTTGGTCAGCTGAGGACACACACAATTCGG
endpoint_value: 0.997

sequence_data: AGTAGCAGGCCAAGTTTGGGTCACTCAAACAAAG
endpoint_value: -0.0669
